// data source = the OPERA property sets (Mansouri et al. 2018)

Where a SMILES comes first, the peptide text is derived from it. The star is where a group is joined. Boc = CC(C)(C)OC(=O)*
Entries whose logP is below 3 take true; entries at or above 3 take false.

| COMPOUND | LABEL CLASS |
| --- | --- |
| CC(C)(C)OC(=O)NC(Cc1ccccc1)C(=O)NC(Cc1ccc(O)cc1)C(=O)O (stereo not drawn) (Boc-Phe-Tyr-OH; configuration not given here) | true |
| CCOC(CC)(OCC)OCC | true |
| Nc1nc(Cl)c2ncn(C3OC(CO)CC3F)c2n1 (stereo unspecified) | true |
| CN1C(=O)C(=O)c2ccccc2C1=O | true |
| CCCCCCOc1cccc(NC(=O)OCCN2CCOCC2)c1 | false |
| CCC(=O)C(CS(=O)(=O)c1ccc(C)cc1)c1ccc(C)cc1 (stereo unspecified) | false |
